# TESTED_SYSTEM: KOR (Homo sapiens, UniProt P41145)
# Construct: expressed in transfected cells; host or cells: CHO cells (membranes)
# Sequence (P41145 whole entry): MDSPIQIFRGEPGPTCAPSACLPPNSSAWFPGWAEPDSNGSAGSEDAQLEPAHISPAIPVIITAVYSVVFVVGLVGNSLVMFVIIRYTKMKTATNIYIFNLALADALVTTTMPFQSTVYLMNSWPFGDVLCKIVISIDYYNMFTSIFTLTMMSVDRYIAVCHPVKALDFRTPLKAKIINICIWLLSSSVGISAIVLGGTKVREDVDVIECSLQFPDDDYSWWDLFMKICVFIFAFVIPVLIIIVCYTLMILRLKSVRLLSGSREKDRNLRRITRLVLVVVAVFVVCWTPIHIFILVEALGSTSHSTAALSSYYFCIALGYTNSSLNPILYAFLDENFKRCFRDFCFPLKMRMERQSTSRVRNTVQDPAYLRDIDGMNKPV
# TEST_DETAILS: [35S]GTPγS-binding assay, KOR-expressing CHO cell membranes
# Assay type: biochemical
# STATED_CONDITIONS: 35S-GTP[γS]
# Procedure: [^35S]-GTPγS-Binding Assays using DOR- or KOR-Expressing CHO Cell Lines: Cell membranes (10 μg protein) were incubated with 10 μM GDP and 0.1 nM [^35S]-GTPγS in assay buffer in the presence and absence of varying concentrations of BNAP, 3 μM SNC80 (standard full agonist at DOR) or 3 μM U50,488H (standard full agonist at KOR) for 90 min at 30° C. Nonspecific binding was determined with 10 μM unlabeled GTPγS. […]
PROPERTY_LABEL: EC50 (nM)
Write the answer as a number in nM, unit excluded.

Item O=C(N[C@@H]1CC[C@@]2(O)[C@H]3Cc4ccc(O)c5c4[C@@]2(CCN3CC2CC2)C1O5)c1cc[n+](Cc2ccccc2)cc1 (stereo partly shown) has what recorded EC50?
2.9
